The reader will find reported EC50 values listed item by item below.
- Test system: Human immunodeficiency virus 1
- ASSAY PROTOCOL: Antiviral activity against HIV-1 harboring RT Y181C mutant infected in human MT4 cells assessed as protection against virus-induced cytopathic effect by MTT assay
- Assay type: functional, organism-based
- CONDITION NOTES: Human immunodeficiency virus 1, MT4
The answer consists of two parts: a number and, after it, its unit.

Worked cases, answers included:
>>> test_result("Cc1cc(C#N)cc(C)c1Oc1cc(-c2cccs2)nc(NC2CCN(Cc3ccc(C(N)=O)cc3)CC2)n1")
"30.5 nM"
>>> test_result("Cc1cc(C#N)cc(C)c1Oc1cc(-c2cncnc2)nc(NC2CCN(Cc3ccc(C(N)=O)cc3)CC2)n1")
"24.6 nM"

**Query** What measured EC50 goes with `Cc1cc(C#N)cc(C)c1Oc1cc(-c2cccnc2)nc(NC2CCN(Cc3ccc(S(N)(=O)=O)cc3)CC2)n1` ?
**Result** 26 nM
